# tested.system: Polyadenylate-binding protein 1 (Homo sapiens, UniProt P11940)
# Sequence (P11940 whole entry): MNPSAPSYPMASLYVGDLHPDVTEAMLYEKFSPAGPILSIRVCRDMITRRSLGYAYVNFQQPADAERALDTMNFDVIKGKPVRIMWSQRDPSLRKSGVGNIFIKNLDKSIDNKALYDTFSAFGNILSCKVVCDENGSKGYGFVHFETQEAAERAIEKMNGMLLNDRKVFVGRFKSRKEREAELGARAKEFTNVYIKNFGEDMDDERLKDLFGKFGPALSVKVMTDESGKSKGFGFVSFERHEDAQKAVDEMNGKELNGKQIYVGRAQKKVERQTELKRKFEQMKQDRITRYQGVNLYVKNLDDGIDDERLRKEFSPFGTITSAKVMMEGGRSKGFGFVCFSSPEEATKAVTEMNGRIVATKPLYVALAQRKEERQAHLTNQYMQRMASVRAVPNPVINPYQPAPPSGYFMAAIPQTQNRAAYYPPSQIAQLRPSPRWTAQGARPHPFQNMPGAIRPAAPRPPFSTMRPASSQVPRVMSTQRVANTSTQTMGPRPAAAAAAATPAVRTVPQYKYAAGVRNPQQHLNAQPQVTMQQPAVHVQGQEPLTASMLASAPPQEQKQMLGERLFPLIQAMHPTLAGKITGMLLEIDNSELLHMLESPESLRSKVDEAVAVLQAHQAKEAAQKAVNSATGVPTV

# cpd.smiles, IC50
data = [
    ("COc1cc([CH+][N-]NC(=O)c2ccc(O)cc2)ccc1OCC(=O)Nc1cccc([N+](=O)[O-])c1", "> 100 µM"),
]
